The measurements presented in this section are drawn from the RNAGym collection of RNA variant scans (doi:10.1073/pnas.2313332121).

B1: TPR 5TU (parent)
chain: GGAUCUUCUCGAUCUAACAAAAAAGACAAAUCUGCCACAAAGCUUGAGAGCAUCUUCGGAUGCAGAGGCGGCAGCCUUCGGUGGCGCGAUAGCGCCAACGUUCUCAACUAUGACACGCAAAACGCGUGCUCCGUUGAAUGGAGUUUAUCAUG

Variants of: B1
Assay: polymerase ribozyme fitness, log enrichment relative to wild type (log ratio); higher = more active; in vitro selection for triplet polymerase activity
Fewer inactive variants are shown than the library holds.
I'd be grateful if you could share measured polymerase ribozyme fitness (log ratio) for these entries.

Q: Form field: reported polymerase ribozyme fitness (log ratio) of A22U G58A A60C U111A
Result: ≤ -4.2

Q: Next variant up: C51G C54U A98G C132A U135G
Result: ≤ -4.2

Q: Next variant up: A52U C57A U135C
Result: -3.88

Q: Next variant up: U7G C10A C75A C87A C125G A138U
Result: ≤ -4.2

Q: Next variant up: A52U U144G A147C
Result: -0.409

Q: Next variant up: C14G A19U C87G U145A
Result: ≤ -4.2

Q: Next variant up: G83U C87U
Result: -1.25

Q: Next variant up: U90G G140C
Result: ≤ -4.2

Q: Next variant up: A3C C85U
Result: -1.46

Q: Next variant up: A17G C51G U55A C57U G92U C103A C108A
Result: ≤ -4.2

Q: Next variant up: A22U C32A G42A G48A A52G U148A
Result: ≤ -4.2

Q: Next variant up: U13G C57A
Result: -0.243

Q: Next variant up: U53A C96U C103U
Result: -1.14

Q: Next variant up: U61G C75G G88U A89U U101A G140C
Result: ≤ -4.2

Q: Next variant up: C57A A60C
Result: -1.35

Q: Next variant up: U6A A26C A98U G136U
Result: -4.09

Q: Next variant up: U78G A91C C131G
Result: ≤ -4.2

Q: Next variant up: U9G A17C A52C G84A C118A
Result: ≤ -4.2

Q: Next variant up: A21G G81U C95A C96A A98U U145A
Result: -1.34

Q: Next variant up: C14U C35U C85U A106G A115G
Result: -3.81

Q: Next variant up: U53A U130G A142C
Result: -0.549

Q: Next variant up: C10U U55A C72U
Result: -3.95

Q: Next variant up: G58C C87G A98G
Result: ≤ -4.2

Q: Next variant up: C14G C85G C131A
Result: ≤ -4.2

Q: Next variant up: G59C A97U
Result: -0.431

Q: Next variant up: A52U G67U C85A C125G
Result: ≤ -4.2

Q: Next variant up: C57A G70A G86U C96A C99U U134C U146C
Result: ≤ -4.2

Q: Next variant up: U31A C32A G59A C93G A113U A150C
Result: ≤ -4.2

Q: Next variant up: A40U A89C C114U
Result: -2.95

Q: Next variant up: A16G G81A G83A C93U G128C U134G
Result: ≤ -4.2

Q: Next variant up: A12G G81A G92A C114A G152U
Result: ≤ -4.2

Q: Next variant up: A20U A40U A49C G94A C99A G143A
Result: ≤ -4.2

Q: Next variant up: A28U C54U
Result: -3.76

Q: Next variant up: C8U A20U G46C G59U A60C C63U G83U C87U A97U U145A
Result: ≤ -4.2

Q: Next variant up: A66U A89G
Result: ≤ -4.2

Q: Next variant up: U78C C93U C99A A115C
Result: -4.13

Q: Next variant up: C14U A28U C51G A97G
Result: ≤ -4.2

Q: Next variant up: U82A A89G C96G G128U
Result: -4.05

Q: Next variant up: A22G C72G C87U C93A C99A
Result: ≤ -4.2

Q: Next variant up: C63G A64C C72U C95U C105G A120U G141U
Result: ≤ -4.2

Q: Next variant up: A40C G48A G58A C87U
Result: -2.55

Q: Next variant up: A40U G88C U101G
Result: ≤ -4.2

Q: Next variant up: C14G C79A C93G C96A
Result: ≤ -4.2

Q: Next variant up: A16U A98U A122G U146G
Result: -3.26

Q: Next variant up: A24G U33G G71A C87G C93G C96A A98G A137G
Result: ≤ -4.2

Q: Next variant up: A49U C54U
Result: -1.34

Q: Next variant up: A16C U61A G67A C87U A107U
Result: ≤ -4.2

Q: Next variant up: U31G G62C G88C A119G
Result: ≤ -4.2

Q: Next variant up: A22U C54U G81A G83A U90A C95U G141C
Result: ≤ -4.2

Q: Next variant up: A47U C96A A97G A122C
Result: -1.28

Q: Next variant up: G84A U145C
Result: -0.153

Q: Next variant up: C5U U56A C75U G83C
Result: -0.766

Q: Next variant up: A24C A37G G48C C63U U78G G88C U144G
Result: ≤ -4.2

Q: Next variant up: A24U G80U C123G U146G
Result: -1.39

Q: Next variant up: A17G A23G G48C A91U U104A
Result: ≤ -4.2

Q: Next variant up: U101A A106C A147G
Result: -3.14

Q: Next variant up: U6G A12U A23G C38A G83U U90G C95A
Result: ≤ -4.2

Q: Next variant up: C32G C96U C116G G141U
Result: ≤ -4.2

Q: Next variant up: C54G C96U C123G
Result: -1.53

Q: Next variant up: U77G G92U A115U
Result: ≤ -4.2

Q: Next variant up: C87U G140U
Result: -3.68

Q: Next variant up: U13C C87A
Result: ≤ -4.2

Q: Next variant up: C5A C14G G94C G143A
Result: -4.07

Q: Next variant up: A24U G42C G84A C93U G94C C99A A122G
Result: ≤ -4.2

Q: Next variant up: A22C A115C C129G
Result: ≤ -4.2

Q: Next variant up: C38U G50U U56A G74U C75G C125U U139A
Result: ≤ -4.2

Q: Next variant up: C10U A19C U45G C72G U90C U135G
Result: ≤ -4.2

Q: Next variant up: A21U U44A C51U C57U G65A
Result: ≤ -4.2

Q: Next variant up: A28U A29U A37G A66U A73U U78G G84A
Result: ≤ -4.2

Q: Next variant up: A21U C32G U55A G83U
Result: ≤ -4.2

Q: Next variant up: U90C U127C
Result: ≤ -4.2

Q: Next variant up: C10U G59A C93U A137G
Result: ≤ -4.2

Q: Next variant up: A49U A107C
Result: ≤ -4.2

Q: Next variant up: C85U C125G
Result: -0.638

Q: Next variant up: U55A C57U
Result: 0.643

Q: Next variant up: C10A C85G C125A
Result: ≤ -4.2

Q: Next variant up: C5G U45G G86U C93G A97G
Result: -3.16

Q: Next variant up: U9G C69A U102C
Result: ≤ -4.2

Q: Next variant up: A24U G67C C76G G83U
Result: -2.24

Q: Next variant up: A17C A24G A39U U56A C103G G136U
Result: ≤ -4.2

Q: Next variant up: C72U A91U C96G
Result: ≤ -4.2

Q: Next variant up: G59A C85G G126U
Result: -2.21

Q: Next variant up: A16U G88C
Result: ≤ -4.2

Q: Next variant up: A20U C32G U56G G81A C93U A107G C131U C132G U135G A147G
Result: ≤ -4.2

Q: Next variant up: A16G G83U G92A C96U
Result: ≤ -4.2

Q: Next variant up: C18G C43A A52C G71A A91U C95G U146C
Result: ≤ -4.2

Q: Next variant up: A41U C63G C85A G152U
Result: ≤ -4.2

Q: Next variant up: C5A A19U G86C
Result: -3.47

Q: Next variant up: A98G U101C G141U
Result: 0.851

Q: Next variant up: C14U G67A G88A G136U
Result: ≤ -4.2

Q: Next variant up: A22C U44A C87U C103U
Result: ≤ -4.2
